- STUDY_SYSTEM: Peroxisome proliferator-activated receptor gamma (Homo sapiens, UniProt P37231)
- Sequence (P37231 whole entry): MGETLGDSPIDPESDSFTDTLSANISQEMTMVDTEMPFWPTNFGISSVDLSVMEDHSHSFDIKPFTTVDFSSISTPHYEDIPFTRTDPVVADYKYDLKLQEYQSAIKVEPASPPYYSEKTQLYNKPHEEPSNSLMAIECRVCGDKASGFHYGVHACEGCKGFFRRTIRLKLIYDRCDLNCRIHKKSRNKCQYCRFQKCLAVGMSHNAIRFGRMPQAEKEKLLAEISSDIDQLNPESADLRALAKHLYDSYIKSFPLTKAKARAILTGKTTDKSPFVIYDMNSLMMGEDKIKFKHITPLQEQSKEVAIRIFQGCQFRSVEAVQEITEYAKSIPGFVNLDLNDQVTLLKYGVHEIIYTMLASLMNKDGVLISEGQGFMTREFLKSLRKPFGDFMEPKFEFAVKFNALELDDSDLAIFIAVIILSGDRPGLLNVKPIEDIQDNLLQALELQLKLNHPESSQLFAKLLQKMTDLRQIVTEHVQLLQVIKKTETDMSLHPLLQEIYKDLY
- Type: cell-based, 293T
- CONDITION_DETAILS: read-out: EC50
PROPERTY_MEASURED: EC50

Here is how some molecules turned out for EC50.
>  <COMPOUND>
COc1ccc(-c2nc(COc3ccc(OCC(=O)O)c(C)c3)oc2-c2ccc(Cl)cc2)cc1

>  <STUDY_SYSTEM>
Peroxisome proliferator-activated receptor gamma (Homo sapiens, UniProt P37231)

>  <ASSAY_VALUE>
> 10 µM

$$$$
>  <COMPOUND>
Cc1cc(OCc2nc(-c3ccc(-c4ccccc4)cc3)c(-c3ccc(-c4ccccc4)cc3)s2)ccc1OCC(=O)O

>  <STUDY_SYSTEM>
Peroxisome proliferator-activated receptor gamma (Homo sapiens, UniProt P37231)

>  <ASSAY_VALUE>
> 10 µM

$$$$

For each entry beneath this line, provide reported EC50.
1. COc1ccc(-c2nc(SCCCCOc3ccc(CC(=O)O)cc3Cl)sc2-c2ccc(OC)cc2)cc1
2. COc1ccc(-c2nc(COc3ccc(OCC(=O)O)c(C)c3)sc2-c2ccc(C(F)(F)F)cc2)cc1

1: 2.56 µM; 2: > 10 µM
